Experiment: AUC in cynomolgus monkey at 1 mg/kg, po
Type: ADME, organism-based, Macaca fascicularis
Design: dose 1 mg/kg, route oral
Conditions: plasma
Readout kind: AUC
State the result as a value with its unit after it.

# input compound: CCCC[C@H]1CN(CC2CCOCC2)C(=O)OC12CCN(C1(C)CCN(C(=O)c3c(C)ncnc3C)CC1)CC2 ; wanted: its AUC
0.396 µg·h/mL

====

Test: Volume of distribution at steady state in dog at 1 mg/kg, iv
Format: ADME, organism-based, Canis lupus familiaris
Parameters: dose 1 mg/kg, route intravenous
Conditions: in vivo, read-out: Vdss
Readout kind: Vd (L/kg)
Note: unit L/kg is implicit; provide only the numeric part.

Vd for CCCC[C@H]1CN(CC2CCOCC2)C(=O)OC12CCN(C1(C)CCN(C(=O)c3c(C)ncnc3C)CC1)CC2 ?
3.2
